From: patent US20240425606A1

Target: T1, IL-11R on STAT3 Reporter (Luciferase)-HEK293 cells (UniProt Q14626 23-422)
T1 sequence (looked up): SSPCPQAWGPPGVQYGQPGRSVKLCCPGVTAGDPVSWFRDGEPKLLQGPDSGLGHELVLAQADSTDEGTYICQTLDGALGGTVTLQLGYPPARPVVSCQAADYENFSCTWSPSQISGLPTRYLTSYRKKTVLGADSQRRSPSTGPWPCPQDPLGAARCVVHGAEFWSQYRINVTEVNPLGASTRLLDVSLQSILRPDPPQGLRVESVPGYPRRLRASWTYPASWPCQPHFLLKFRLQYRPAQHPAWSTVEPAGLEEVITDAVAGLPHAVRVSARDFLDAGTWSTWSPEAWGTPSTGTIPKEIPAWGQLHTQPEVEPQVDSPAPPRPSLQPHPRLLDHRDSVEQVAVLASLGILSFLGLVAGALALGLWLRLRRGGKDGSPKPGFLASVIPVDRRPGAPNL
Assay: cell-based or functional assay
assay_endpoint: IC50, STAT3 luciferase reporter assay (HEK293), inhibiting IL-11, Assay 1 (µg/mL)

binder	relational_operator	quantitative_readout
mAb11 (antibody, V domains shown, Expressed as human IgG4 (S228P EU)) VH: EVQLLESGGGLVQPGGSLRLSCAASGFTFSWYSMTWVRQAPGKGLEWVSSIVDYGDLTQYADSVKGRFTISRDNSKNTLYLQMNSLRAEDTAVYYCAKGPGWGSFDLWGRGTLVTVSS VL: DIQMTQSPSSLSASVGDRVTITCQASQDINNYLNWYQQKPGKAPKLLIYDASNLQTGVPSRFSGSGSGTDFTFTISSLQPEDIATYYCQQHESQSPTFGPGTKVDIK	>	100
mAb9 (antibody, V domains shown, Expressed as human IgG4 (S228P EU)) VH: EVQLLESGGGLVQPGGSLRLSCAASGFTFSWYSMTWVRQAPGKGLEWVSGIVPYGDLTQYADSVKGRFTISRDNSKNTLYLQMNSLRAEDTAVYYCAKGPGWGSFDLWGRGTLVTVSS VL: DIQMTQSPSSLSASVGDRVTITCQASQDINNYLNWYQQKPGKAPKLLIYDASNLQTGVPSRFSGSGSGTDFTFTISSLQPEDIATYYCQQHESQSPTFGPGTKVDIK	=	0.11
mAb8 (antibody, V domains shown, Expressed as human IgG4 (S228P EU)) VH: EVQLLESGGGLVQPGGSLRLSCAASGFTFSSYAMSWVRQAPGKGLEWVSSIVPYGDLTQYADSVKGRFTISRDNSKNTLYLQMNSLRAEDTAVYYCAKGPGWGSFDLWGRGTLVTVSS VL: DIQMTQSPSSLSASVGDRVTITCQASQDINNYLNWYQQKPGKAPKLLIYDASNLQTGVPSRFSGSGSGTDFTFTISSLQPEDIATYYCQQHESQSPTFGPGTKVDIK	=	0.67
mAb15 (antibody, V domains shown, Expressed as human IgG4 (S228P EU)) VH: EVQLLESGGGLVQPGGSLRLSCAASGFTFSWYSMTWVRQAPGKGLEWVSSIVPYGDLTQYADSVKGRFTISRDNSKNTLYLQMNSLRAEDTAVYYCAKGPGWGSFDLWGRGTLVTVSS VL: DIQMTQSPSSLSASVGDRVTITCQASQDINNYLNWYQQKPGKAPKLLIYDASNLQTGVPSRFSGSGSGTDFTFTISSLQPEDIATYYCQQHETQTPTFGPGTKVDIK	=	0.38
